# Test system: WT zebrafish larvae
# test_method_notes: Toxicity evaluation: maximum tolerated concentration (MTC)
# Format: in vivo, Danio rerio
# reported_conditions: WT larvae 6 dpf, 22 h incubation
Threshold check on maximum tolerated concentration (MTC): strictly below 100 µM is 1; on or above 100 µM is -1.

Prompt: maximum tolerated concentration (MTC) under 100 µM? Item: C=C(C)[C@@H]1CCC(C)=C[C@H]1c1c(O)cc(CCCCC)cc1O [CBD, cannabidiol]
Response: 1

Prompt: maximum tolerated concentration (MTC) under 100 µM? Item: CCCC(CCC)C(=O)O [VPA, Valproate]
Response: -1

Prompt: maximum tolerated concentration (MTC) under 100 µM? Item: CC(C)(C)C(O)/C=C/c1ccc2c(c1)OCO2 (stereo not shown) [STP, stiripentol]
Response: 1

Prompt: maximum tolerated concentration (MTC) under 100 µM? Item: CC1(C)O[C@@H]2[C@@H](CO[C@@]3(COS(N)(=O)=O)OC(C)(C)O[C@@H]23)O1 [TPM, topiramate]
Response: -1

Prompt: maximum tolerated concentration (MTC) under 100 µM? Item: NC(=O)N1c2ccccc2C=Cc2ccccc21 [CBZ, carbamazepine]
Response: 1

Prompt: maximum tolerated concentration (MTC) under 100 µM? Item: CCNC(C)Cc1cccc(C(F)(F)F)c1 (racemic) [(±)-FFA, (±)-Fenfluramine]
Response: 1

Prompt: maximum tolerated concentration (MTC) under 100 µM? Item: CC[C@@H](C(N)=O)N1CCCC1=O [LEV, levetiracetam]
Response: -1

The measured values listed here are drawn from paper PMC8302504.
